These measurements were taken from patent US9738600B2.

target: UniProt:P51449; assay: RORγ GAL4 reporter gene assay; conditions: mean pIC50, inhibition of RORγ (GAL4-RORγ-LBD) in 293FT cells, luciferase readout, overnight incubation
pIC50: −log10 of the molar value.
reported_endpoint: pIC50

| compound | observed |
| --- | --- |
| CCS(=O)(=O)c1ccc(CC(=O)Nc2ccc(C(O)(C(C)C)C(F)(F)F)cc2)cc1 (stereo not drawn) [Example 65] | ≥ 6.00 |
| CCS(=O)(=O)c1ccc(CC(=O)Nc2ccc(C(O)(CC3CCCC3)C(F)(F)F)cc2)cc1 (stereo not drawn) [Example 86] | ≥ 6.00 |
| CCOC(c1ccc(NC(=O)Cc2ccc(S(=O)(=O)CC)cc2)cc1)(C(F)(F)F)C(F)(F)F [Example 48] | ≥ 6.00 |

###

target: RORγ (Homo sapiens); assay: RORγ GAL4 reporter gene assay; details: mean pIC50, inhibition of RORγ (GAL4-RORγ-LBD) in 293FT cells, luciferase readout, overnight incubation
Sequence (P51449 269-508 limits assumed): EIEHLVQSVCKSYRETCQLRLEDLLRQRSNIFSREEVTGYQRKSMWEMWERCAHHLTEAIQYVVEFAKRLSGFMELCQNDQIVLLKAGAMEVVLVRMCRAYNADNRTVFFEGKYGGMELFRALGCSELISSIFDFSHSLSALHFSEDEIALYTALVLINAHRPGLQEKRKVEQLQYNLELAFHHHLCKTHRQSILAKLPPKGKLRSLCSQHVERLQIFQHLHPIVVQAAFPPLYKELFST
pIC50: −log10 of the molar value.
reported_endpoint: pIC50

| compound | experimental_target | reported_endpoint | observed |
| --- | --- | --- | --- |
| Cc1cc(S(=O)(=O)CC2CC2)ccc1CC(=O)Nc1ccc(C(O)(C(F)(F)F)C(F)(F)F)cc1 [Example 93] | RORγ (Homo sapiens) | pIC50 | ≥ 7.00 |
| CCCOC(c1ccc(NC(=O)Cc2ccc(S(=O)(=O)CC)cc2)cc1)(C(F)(F)F)C(F)(F)F [Example 49] | RORγ (Homo sapiens) | pIC50 | ≥ 7.00 |
| CC(C)C(O)(c1ccc(NC(=O)Cc2ccc(S(=O)(=O)NC3CC3)cc2)cc1)C(F)(F)F (stereo not drawn) [Example 95] | RORγ (Homo sapiens) | pIC50 | ≥ 6.00 |
| CCS(=O)(=O)c1ccc(CC(=O)Nc2ccc(C(O)(C(F)(F)F)C(F)(F)F)cc2F)cc1 [Example 28] | RORγ (Homo sapiens) | pIC50 | ≥ 6.00 |
| CC(O)(c1ccc(NC(=O)Cc2ccc(S(=O)(=O)CC3CC3)cc2)cc1)C(F)(F)F (stereo not drawn) [Example 71] | RORγ (Homo sapiens) | pIC50 | ≥ 7.00 |
| O=C(Cc1ccc(S(=O)(=O)CC2CC2)cc1)Nc1ccc(C(O)(CC2CCCCC2)C(F)(F)F)cc1 (stereo not drawn) [Example 69] | RORγ (Homo sapiens) | pIC50 | ≥ 7.00 |
| O=C(Cc1ccc(S(=O)(=O)NC2CC2)cc1)Nc1ccc(C(O)(C2CCCC2)C(F)(F)F)cc1 (stereo not drawn) [Example 90] | RORγ (Homo sapiens) | pIC50 | ≥ 6.00 |
| O=C(Cc1ccc(S(=O)(=O)CC2CC2)cc1)Nc1ccc(C(O)(C(F)(F)F)C(F)(F)F)cc1 [Example 37] | RORγ (Homo sapiens) | pIC50 | ≥ 8.00 |
| O=C(Cc1cccc(S(=O)(=O)NC2CC2)c1)Nc1ccc(C(O)(C(F)(F)F)C(F)(F)F)c(F)c1 [Example 38] | RORγ (Homo sapiens) | pIC50 | ≥ 6.00 |
| COc1cc(C(O)(C(F)(F)F)C(F)(F)F)ccc1NC(=O)Cc1ccc(S(=O)(=O)CC2CC2)cc1 [Example 55] | RORγ (Homo sapiens) | pIC50 | ≥ 7.00 |
| CC(C(=O)Nc1ccc(C(O)(C(F)(F)F)C(F)(F)F)cc1)c1ccc(S(=O)(=O)CC2CC2)cc1 (stereo not drawn) [Example 109] | RORγ (Homo sapiens) | pIC50 | ≥ 7.00 |
| O=C(Cc1ccc(S(=O)(=O)CC2CC2)cc1)Nc1ccc(C(O)(C2CCCC2)C(F)(F)F)cc1 (stereo not drawn) [Example 75] | RORγ (Homo sapiens) | pIC50 | ≥ 8.00 |
| CCNS(=O)(=O)c1ccc(CC(=O)Nc2ccc(C(O)(C(F)(F)F)C(F)(F)F)cc2)cc1 [Example 10] | RORγ (Homo sapiens) | pIC50 | ≥ 6.00 |
| O=C(Cc1ccc(S(=O)(=O)CC2CC2)cc1)Nc1ccc(C(O)(C(F)(F)F)C(F)(F)F)c(Cl)c1 [Example 62] | RORγ (Homo sapiens) | pIC50 | ≥ 7.00 |
| O=C(Cc1ccc(S(=O)(=O)CC2CC2)cc1)Nc1ccc(C(O)(C(F)(F)F)C(F)(F)F)cn1 [Example 107] | RORγ (Homo sapiens) | pIC50 | ≥ 7.00 |
| O=C(Cc1ccc(S(=O)(=O)NC2CC2)cc1)Nc1ccc(C(O)(C(F)(F)F)C(F)(F)F)c(Cl)c1 [Example 89] | RORγ (Homo sapiens) | pIC50 | ≥ 6.00 |
| O=C(Cc1ccc(S(=O)(=O)NC2CC2)cc1)Nc1ccc(C(O)(CC2CCCC2)C(F)(F)F)cc1 (stereo not drawn) [Example 99] | RORγ (Homo sapiens) | pIC50 | ≥ 6.00 |
| CCS(=O)(=O)c1ccc(CC(=O)Nc2ccc(C(O)(CC3CCCCC3)C(F)(F)F)cc2)cc1 (stereo not drawn) [Example 74] | RORγ (Homo sapiens) | pIC50 | ≥ 6.00 |
| Cc1cc(NC(=O)Cc2cccc(S(=O)(=O)NC3CC3)c2)ccc1C(O)(C(F)(F)F)C(F)(F)F [Example 36] | RORγ (Homo sapiens) | pIC50 | ≥ 6.00 |
| CCCS(=O)(=O)c1ccc(CC(=O)Nc2ccc(C(O)(C(F)(F)F)C(F)(F)F)cc2)cc1 [Example 4] | RORγ (Homo sapiens) | pIC50 | ≥ 6.00 |
| CCC(O)(c1ccc(NC(=O)Cc2ccc(S(=O)(=O)NC3CC3)cc2)cc1)C(F)(F)F (stereo not drawn) [Example 79] | RORγ (Homo sapiens) | pIC50 | ≥ 6.00 |
